MIC values by entry
Test system: P. aeruginosa NCGM1984
Construct: NCGM1984 (clinical isolate, ST235, two chromosomal copies of blaIMP-34)
ASSAY METHOD TEXT: microbe, parasite or virus in culture
Parameters: CLSI microdilution susceptibility test, minimum inhibitory concentration of bacterial growth
APPLIED CONDITIONS: Pseudomonas aeruginosa, NCGM1984; clinical isolate carrying two copies of blaIMP-34; read-out: MIC (μg/ml) / P. aeruginosa NCGM1984

Record excerpt, results attached:
1. CO/N=C(\C(=O)N[C@@H]1C(=O)N2C(C(=O)O)=C(COC(C)=O)CS[C@H]12)c1csc(N)n1	> 1020 µg/mL
2. CC1(C)S[C@@H]2[C@H](NC(=O)Cc3ccccc3)C(=O)N2[C@H]1C(=O)O	> 1020 µg/mL
3. CO/N=C(\C(=O)N[C@@H]1C(=O)N2C(C(=O)[O-])=C(C[N+]3(C)CCCC3)CS[C@H]12)c1csc(N)n1 [Cefepime]	> 1020 µg/mL

Now examine the next entry.
[ask] Form field: MIC recorded for CO/N=C(\C(=O)N[C@@H]1C(=O)N2C(C(=O)[O-])=C(C[n+]3cccc4c3CCC4)CS[C@H]12)c1csc(N)n1 with P. aeruginosa NCGM1984 (enter value)
[reply] 512 µg/mL

* * *

System: P. aeruginosa NCGM1984
Construct: NCGM1984 (clinical isolate, ST235, two chromosomal copies of blaIMP-34)
ASSAY METHOD TEXT: microbe, parasite or virus in culture
Set-up: CLSI microdilution susceptibility test, minimum inhibitory concentration of bacterial growth
APPLIED CONDITIONS: Pseudomonas aeruginosa, NCGM1984; clinical isolate carrying two copies of blaIMP-34; read-out: MIC (μg/ml) / P. aeruginosa NCGM1984
MIC values by entry

Record excerpt, results attached:
1. CC1(C)S[C@@H]2[C@H](NC(=O)[C@H](N)c3ccccc3)C(=O)N2[C@H]1C(=O)O [Ampicillin]	> 1020 µg/mL
2. C[C@@H](O)[C@H]1C(=O)N2C(C(=O)O)=C(SCCN=CN)C[C@H]12 [Imipenem]	512 µg/mL
3. C[C@@H](O)[C@H]1C(=O)N2C(C(=O)O)=C(S[C@@H]3CN[C@H](C(=O)N(C)C)C3)[C@H](C)[C@H]12 [Meropenem]	> 1020 µg/mL

[ask] Form field: MIC recorded for CO/N=C(\C(=O)N[C@@H]1C(=O)N2C(C(=O)O)=C(COC(N)=O)CS[C@H]12)c1ccco1 [Cefuroxime] with P. aeruginosa NCGM1984 (enter value)
[reply] > 1020 µg/mL

Hey, just so you know, these numbers are from paper PMC4824433.
